# Test system: Escherichia coli K-12 strain
# assay-explanation: Measurement of MIC for Escherichia coli
# Format: cell-based
# experimental-context: K12STRAIN, nutrient broth medium, 37° C. overnight, read-out: MIC Escherichia coli K-12
Listed here are compounds together with their documented MIC.
Note: unit µg/mL is implicit; provide only the numeric part.

The cases that follow already have their MIC on record.
* CC[C@H]1OC(=O)[C@H](C)[C@@H](O[C@H]2C[C@@](C)(OC)[C@@H](O)[C@H](C)O2)[C@H](C)[C@@H](O[C@@H]2O[C@H](C)C[C@H](N(C)C)[C@H]2O)[C@](C)(OC)C[C@@H](C)C(=O)[C@H](C)[C@@H](O)[C@]1(C)O [Clarithromycin, clarithromycin, reference compound] | 16
* CC1(C)S[C@@H]2[C@H](NC(=O)[C@H](N)c3ccccc3)C(=O)N2[C@H]1C(=O)O [ABPC, ampicillin, reference compound] | 4

# ---- query compound ----
Could you tell me which MIC is on file for CCCCCCCCc1c(C)c(=O)c2ccccc2n1CC(=O)O [Structural Formula (6)] ?
128

====

# assay-explanation: Acute toxicity test (maximum tolerated dose)
# experimental-context: female, ICR, mouse, in vivo, iv, intravenous administration, ICR mice, observed for 2 weeks; one half of the dose with death or serious toxicity; read-out: MTD
Listed here are molecules together with their documented MTD at 2 weeks.

The cases that follow already have their MTD at 2 weeks on record.
- CCCCCCCc1c(C)c(=O)c2ccccc2n1CNC(=S)SC: ≥ 50 mg/kg
- CCCCCCCCc1c(C)c(=O)c2ccccc2n1CNC(=O)SC: ≥ 50 mg/kg

# ---- query molecule ----
Could you tell me which MTD at 2 weeks is on file for CCCCCCCc1c(C)c(=O)c2ccccc2n1CN=C(SC)SC ?
≥ 50 mg/kg

====

# Tested on: Escherichia coli K-12 strain
# assay-explanation: Measurement of MIC for Escherichia coli
# Type: cell-based
# experimental-context: K12STRAIN, nutrient broth medium, 37° C. overnight, read-out: MIC Escherichia coli K-12
assay-metric: MIC

The cases that follow already have their MIC on record.
* CCCCCCCc1c(C)c(=O)c2ccccc2n1CNC(=S)SC | > 128 µg/mL
* Cc1c(CCCC/C=C/C(C)C)[nH]c2ccccc2c1=O | > 128 µg/mL

# ---- query molecule ----
Could you tell me which MIC is on file for CCCCCCCCc1c(C)c(=O)c2ccccc2n1CC(=O)OC ?
> 128 µg/mL

// data source = patent US10202347B2
